Taken from patent US20230330027A1.

Dv10 by entry:
Assay overview: Particle size distribution by laser diffraction (Malvern Mastersizer 2000)
Format: physicochemical
Measurement setup: no unit in Table 4; d values in micrometers, volume distribution
Reported property: Dv10

Compound | Reported property | Result
COc1cc2ncc3c(c2cc1-c1cn(C)nc1C)n(-c1c(F)cncc1OC)c(=O)n3C (atropisomer, axis not shown; (Sa)) [Compound 1 Anhydrous Form A2 OPT] | Dv10 | 19 µm
COc1cc2ncc3c(c2cc1-c1cn(C)nc1C)n(-c1c(F)cncc1OC)c(=O)n3C (atropisomer, axis not shown; (Sa)) [Compound 1 Anhydrous Form A2] | Dv10 | 9 µm
